- test system: T1, C5a receptor (Homo sapiens, UniProt P21730)
- T1 construct: Neutrophils were purified from human peripheral blood; endogenous in cells; host or cells: neutrophils from human peripheral blood
- T1 sequence (P21730 1-350): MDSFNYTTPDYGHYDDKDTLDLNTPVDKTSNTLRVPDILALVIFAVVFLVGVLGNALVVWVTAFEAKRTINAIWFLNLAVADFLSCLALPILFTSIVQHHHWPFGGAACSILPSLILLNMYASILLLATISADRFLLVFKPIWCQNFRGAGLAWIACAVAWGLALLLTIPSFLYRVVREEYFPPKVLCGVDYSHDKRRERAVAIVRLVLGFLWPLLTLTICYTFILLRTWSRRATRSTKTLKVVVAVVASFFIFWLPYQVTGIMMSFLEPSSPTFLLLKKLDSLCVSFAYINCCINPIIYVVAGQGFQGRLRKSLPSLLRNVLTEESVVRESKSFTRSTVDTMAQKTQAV
- protocol details: Receptor binding assay: displacement of [125I]Bolton-Hunter labelled C5a from PMNL membranes
- condition info: Table 4; [125I]BH-C5a 4.0 pM, PMNL membranes, Cheng-Prusoff
// reported Ki for each item listed
reported endpoint: Ki (nM)

INSERT INTO assay_data (molecule, unit_name, observed_value) VALUES
  ('C5a (1-71, T1M, C27S, Q71C) (protein, UniProt P01031 678-751, looked up, variant T1M C27S Q71C, C5a anaphylatoxin) C5a anaphylatoxin: MLQKKIEEIAAKYKHSVVKKCCYDGASVNNDETCEQRAARISLGPRCIKAFTECCVVASQLRANISHKDMCLGR', 'nM', 0.2),
  ('C5a (1-71, T1M, C27S) (protein, UniProt P01031 678-751, looked up, variant T1M C27S, C5a anaphylatoxin, agonist, included for comparison) C5a anaphylatoxin: MLQKKIEEIAAKYKHSVVKKCCYDGASVNNDETCEQRAARISLGPRCIKAFTECCVVASQLRANISHKDMQLGR', 'nM', 3),
  ('C5a (1-71, T1M, C275, Q71D) (protein, UniProt P01031 678-751, looked up, variant T1M C27S Q71D, C5a anaphylatoxin, agonist, included for comparison) C5a anaphylatoxin: MLQKKIEEIAAKYKHSVVKKCCYDGASVNNDETCEQRAARISLGPRCIKAFTECCVVASQLRANISHKDMDLGR', 'nM', 8.5),
  ('C5a (1-71, T1M, C27S, H67F, Q71C) (protein, UniProt P01031 678-751, looked up, variant T1M C27S H67F Q71C, C5a anaphylatoxin truncated to residues 1-71) C5a anaphylatoxin: MLQKKIEEIAAKYKHSVVKKCCYDGASVNNDETCEQRAARISLGPRCIKAFTECCVVASQLRANISFKDMCLGR', 'nM', 0.1);
